B1: Twister Ribozyme (parent)
chain: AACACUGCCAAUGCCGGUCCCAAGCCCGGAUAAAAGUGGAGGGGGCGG

Variants of: B1
Experiment: self-cleavage, relative activity (ratio to wild type); higher = more cleavage; co-transcriptional
I'd be grateful if you could share measured self-cleavage for these entries.
Give the value as a plain number.

Request the reported self-cleavage associated with AACACUGCCAAUGCCGGUCCCAAUCCCGGAUAAAAGUGGAGGGGUCGG [G24U G45U] 0.091

Request the reported self-cleavage associated with UACACUGCCAAUACCGGUCCCAAGCCCGGAUAAAAGUGGAGGGGGCGG [A1U G13A] 0.0679

Request the reported self-cleavage associated with AACACUGCCAAUGCCGGUCCAAAGCCCGGAUAAAAAUGGAGGGGGCGG [C21A G36A] 0.0703

Request the reported self-cleavage associated with AACACUGCCAAUUCCGGUCCCAAGCCCGGAUAAAAGUGGAUGGGGCGG [G13U G41U] 0.104

Request the reported self-cleavage associated with AACACUGCCAAUGCCGGUCCCAAGACCGGAUAAAUGUGGAGGGGGCGG [C25A A35U] 0.135

Request the reported self-cleavage associated with AACACUGCCAAUGCCGGACCCAAGCCCGGAUAAAAGUGGAGAGGGCGG [U18A G42A] 0.104

Request the reported self-cleavage associated with AACACUCCUAAUGCCGGUCCCAAGCCCGGAUAAAAGUGGAGGGGGCGG [G7C C9U] 0.101

Request the reported self-cleavage associated with AACACUGCCAAUGCCGGUCCCAAGCCCGGAUAAGAGUGCAGGGGGCGG [A34G G39C] 0.109

Request the reported self-cleavage associated with AACACUGCCAAUGCCGGACCCAAGCCCGGAUAAAAGUGGAGGGUGCGG [U18A G44U] 0.543

Request the reported self-cleavage associated with AACACUUCCCAUGCCGGUCCCAAGCCCGGAUAAAAGUGGAGGGGGCGG [G7U A10C] 0.117

Request the reported self-cleavage associated with AACACUGCCAAUGCCGGUCCCAAGCCCGGAUAAAAGAGGAGGGGUCGG [U37A G45U] 0.617

Request the reported self-cleavage associated with AACACUGCCAAUGCCGGUCCCAAGACCGGAUAAAGGUGGAGGGGGCGG [C25A A35G] 0.0612

Request the reported self-cleavage associated with AACACUGACACUGCCGGUCCCAAGCCCGGAUAAAAGUGGAGGGGGCGG [C8A A11C] 0.514

Request the reported self-cleavage associated with AACACCGCCAAUGCCGGUCCCAAGCCCGAAUAAAAGUGGAGGGGGCGG [U6C G29A] 0.34

Request the reported self-cleavage associated with AACACUGCCAAUGCCGGUCCCAAGCCCGGACAAAAGUGGAGGGGCCGG [U31C G45C] 0.593

Request the reported self-cleavage associated with AACACUGCAAAUGCAGGUCCCAAGCCCGGAUAAAAGUGGAGGGGGCGG [C9A C15A] 0.35

Request the reported self-cleavage associated with AACACAGCCAAUGCCGGUCCCAAGCCCGGAUAAACGUGGAGGGGGCGG [U6A A35C] 1.04

Request the reported self-cleavage associated with AACUCUGCCAAUGCCGGUCCCAAGCCCGGAUAAAAGAGGAGGGGGCGG [A4U U37A] 0.7

Request the reported self-cleavage associated with AACACUGCCAAUGCCGGUCCCAAGCGCGGAUGAAAGUGGAGGGGGCGG [C26G A32G] 0.316

Request the reported self-cleavage associated with AACACUGCCCAUGCCGGUCCCAAGCCCGGAGAAAAGUGGAGGGGGCGG [A10C U31G] 0.737

Request the reported self-cleavage associated with AACACUGCUAAUGCCGGUCCCAAGCCCGGAUAAAAGUGGAGGGGGCGG [C9U] 0.754

Request the reported self-cleavage associated with AAUACUGCCAAUGUCGGUCCCAAGCCCGGAUAAAAGUGGAGGGGGCGG [C3U C14U] 0.376

Request the reported self-cleavage associated with AACACUGCCAAUGCCGGUCCCAAGCCCGGUUAAAGGUGGAGGGGGCGG [A30U A35G] 0.772

Request the reported self-cleavage associated with AACACUGCCAAUGCCGGUCCCAAGCGCAGAUAAAAGUGGAGGGGGCGG [C26G G28A] 0.101

Request the reported self-cleavage associated with AACACUGCCAAUGCCGGGCCCAAGCCCGGAUAAAAGUGGAGGGGCCGG [U18G G45C] 0.0995

Request the reported self-cleavage associated with AACACUGCCAAUGCCGGUCCCCAGCCCGGAUAAAAGUGUAGGGGGCGG [A22C G39U] 0.111

Request the reported self-cleavage associated with AACACUGCCAAUACCGGUCCCAAGCCCGGUUAAAAGUGGAGGGGGCGG [G13A A30U] 0.899

Request the reported self-cleavage associated with AACAGUGCCAAUCCCGGUCCCAAGCCCGGAUAAAAGUGGAGGGGGCGG [C5G G13C] 0.0798

Request the reported self-cleavage associated with AACACUGCCAAUGUCGGUCCCAAGCCCGGAUCAAAGUGGAGGGGGCGG [C14U A32C] 1.03

Request the reported self-cleavage associated with AAUACUGCCAAUGACGGUCCCAAGCCCGGAUAAAAGUGGAGGGGGCGG [C3U C14A] 0.351

Request the reported self-cleavage associated with AACAAUGCCAGUGCCGGUCCCAAGCCCGGAUAAAAGUGGAGGGGGCGG [C5A A11G] 0.479

Request the reported self-cleavage associated with AACACUGCCAAUGCCGGUCCAAAGCCCGGCUAAAAGUGGAGGGGGCGG [C21A A30C] 0.079

Request the reported self-cleavage associated with AACACUGCCACUGCCGGUCCCAAGCCCGGAUAAAAGUGGCGGGGGCGG [A11C A40C] 0.14

Request the reported self-cleavage associated with AACACUUCCAAUGCCGGUCCCAAGCCCGGAUAAAAGUGGAGGGGGCCG [G7U G47C] 0.0954

Request the reported self-cleavage associated with AACACUUCCAAUGCCGUUCCCAAGCCCGGAUAAAAGUGGAGGGGGCGG [G7U G17U] 0.0401

Request the reported self-cleavage associated with AACACUGCAAAUGCCGGUCCCAAGCCCGGAUAAAAGUGAAGGGGGCGG [C9A G39A] 0.167

Request the reported self-cleavage associated with AACACUGCCAAUGCGGGUCCCAAGCCCGGAUAAAAGUGGCGGGGGCGG [C15G A40C] 0.0616

Request the reported self-cleavage associated with AACACUGCCAAUGCCGGUCCCAAGCCCGGCUAAAGGUGGAGGGGGCGG [A30C A35G] 0.38

Request the reported self-cleavage associated with AACACUGCCAAUGCCAGUCCCAAGCCCGGAUAAAAGUGGAGGGGGUGG [G16A C46U] 0.895

Request the reported self-cleavage associated with AACACUGCCAAUGCCGGUCACAAGCCCGGAUAUAAGUGGAGGGGGCGG [C20A A33U] 0.0982

Request the reported self-cleavage associated with AACACUGCCAAUGCCGGUCCCAAGCCCGGAUAAAAGUGGAGGGGCGGG [G45C C46G] 1.61

Request the reported self-cleavage associated with AACACUGCCAAUGUCGGUCCCAAGCCCGGAUAAAAGUAGAGGGGGCGG [C14U G38A] 1.02

Request the reported self-cleavage associated with AACACUGCCAAUGCCGGUCCCAAGCUCGGAUAAAAGUGGAGGCGGCGG [C26U G43C] 0.0933

Request the reported self-cleavage associated with AACACUGCCAAUGCCGGUCCCAAGCCCGGAAAAAAGUGGAGGGGGCGU [U31A G48U] 0.881

Request the reported self-cleavage associated with AACACUGCCAAUGCCGGUCCAAAGCCCGGAAAAAAGUGGAGGGGGCGG [C21A U31A] 0.0618

Request the reported self-cleavage associated with AAGACUGCCAAUGCCGGUCCCAAGCCCGGAUAAAAGUGGAGAGGGCGG [C3G G42A] 0.111
